Assay: Drug level in Swiss SPF (CD1) mouse liver at 20 mg/kg, po after 0.5 hrs
Assay type: ADME, organism-based
Design: dose 20 mg/kg, route oral
Settings: read-out: Drug uptake
Value Type: concentration at 0.5 h (ng/mL)
Use ng/mL as the unit, but write only the number.

Give the value of concentration at 0.5 h reported for the following: O=C(NCCCN1CCCC1=O)c1cnccc1Nc1nc(-c2cc(Br)ccc2F)nc2nccnc12
4060

----------
Test: Cmax in Swiss SPF (CD1) mouse liver at 20 mg/kg, po
Type: ADME, organism-based
Design: dose 20 mg/kg, route oral
Value Type: Cmax (ng/mL)
Use ng/mL as the unit, but write only the number.

Give the value of Cmax reported for the following: O=C(NCCCN1CCCC1=O)c1cnccc1Nc1nc(-c2cc(Br)ccc2F)nc2nccnc12
4060
